target-or-test-system: Nuclear respiratory factor 1 (Homo sapiens) (UniProt Q16656)
Sequence (Q16656 whole entry, looked up): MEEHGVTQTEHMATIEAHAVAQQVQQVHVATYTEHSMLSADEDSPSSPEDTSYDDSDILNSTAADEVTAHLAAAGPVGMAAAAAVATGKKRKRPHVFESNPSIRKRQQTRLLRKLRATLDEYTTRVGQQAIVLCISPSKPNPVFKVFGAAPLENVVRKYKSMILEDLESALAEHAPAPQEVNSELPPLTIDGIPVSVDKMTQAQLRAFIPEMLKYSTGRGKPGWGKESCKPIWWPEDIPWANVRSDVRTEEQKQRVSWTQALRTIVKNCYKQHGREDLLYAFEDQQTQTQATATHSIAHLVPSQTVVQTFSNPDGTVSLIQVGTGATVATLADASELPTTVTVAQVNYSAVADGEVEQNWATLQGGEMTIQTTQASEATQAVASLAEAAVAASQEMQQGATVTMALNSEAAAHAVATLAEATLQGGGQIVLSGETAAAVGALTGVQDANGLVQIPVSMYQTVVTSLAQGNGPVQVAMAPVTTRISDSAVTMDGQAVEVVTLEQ
experiment-summary: ATG_NRF1_CIS: Attagene CIS-FACTORIAL HepG2 Assay for human Nuclear Respiratory Factor 1 (NRF1) Orphan Gene (AID 2282987)
run-conditions: HepG2 NRF1 cis-element reporter, Attagene multiplex; actives raise or lower the signal
The source made the active and inactive calls. Rule for the calls: active = hit-call score of the fitted dose curve at least 0.9, where 1 is the maximum; inactive = score below 0.9.
Choose the fitting class; nothing outside 1 = active, -1 = inactive is accepted.

CS(=O)(=O)c1ccc(Cl)cc1
-1

Okay, next one:
Exam item: For c1ccc2cc(Nc3ccc(Nc4ccc5ccccc5c4)cc3)ccc2c1 , what call appears in the results of this test?
Marked response: -1

---

experiment-summary: ATG_Ets_CIS: Attagene CIS-FACTORIAL HepG2 Assay for human Erythroblast Transformation Specific (ETS) (AID 2282941)
run-conditions: HepG2 ETS cis-reporter transcription, actives raise or lower the signal
Calls of active or inactive are those of the source. The calls were made as follows: active = hit-call score of the fitted dose curve at least 0.9, where 1 is the maximum; inactive = score below 0.9.
readout-label: outcome

C1CCCCC1
inactive
C=C(C)[C@H]1CC=C(C)C(=O)C1
inactive
Cc1ccc(OC(=O)c2ccccc2O)cc1
inactive
CCOC(=O)CC(C)O (centres undefined)
inactive
O=C(Nc1ccc2c(c1)Cc1ccccc1-2)C(F)(F)F
inactive
OC[C@H]1O[C@@H]2O[C@H]3[C@H](O)[C@@H](O)[C@@H](O[C@H]4[C@H](O)[C@@H](O)[C@@H](O[C@H]5[C@H](O)[C@@H](O)[C@@H](O[C@H]6[C@H](O)[C@@H](O)[C@@H](O[C@H]7[C@H](O)[C@@H](O)[C@@H](O[C@H]8[C@H](O)[C@@H](O)[C@@H](O[C@H]9[C@H](O)[C@@H](O)[C@@H](O[C@H]1[C@H](O)[C@H]2O)O[C@@H]9CO)O[C@@H]8CO)O[C@@H]7CO)O[C@@H]6CO)O[C@@H]5CO)O[C@@H]4CO)O[C@@H]3CO
inactive

Exam item: Item under review: CCCC[O][Al]([O]CCCC)[O]CCCC . Reported outcome?
Marked response: inactive

Exam item: Item under review: c1ccc(CCc2ccccc2)cc1 . Reported outcome?
Marked response: inactive

Exam item: Item under review: O=C(O)CCCCCCCCC(=O)O . Reported outcome?
Marked response: inactive

---

experiment-summary: ACEA_AR_agonist_AUC_viability: ACEA Biosciences xCELLigence Real-Time Cell Analysis on Androgen Receptor Agonism for Viability (AID 2283775)
Inconclusive results are not listed. Activity calls are given as the source filed them. The calls were made as follows: active = hit-call score of the fitted dose curve at least 0.9, where 1 is the maximum; inconclusive = response in the unintended direction; inactive = score below 0.9.
Choose the fitting class; nothing outside active, inactive is accepted.

Consider the worked cases shown below.
CC(C)CCCCCCc1ccc(OCCOCCO)cc1
inactive
c1ccc(Oc2ccccc2)cc1
inactive
CC(CN=Cc1ccccc1O)N=Cc1ccccc1O (stereo not given)
active

Exam item: For CCCCC1CCC(O)CC1 (stereo not given) , what call appears in the results of this test?
Marked response: inactive

Exam item: For O=P(O)(O)O , what call appears in the results of this test?
Marked response: inactive

Exam item: For CCCCCCCCC=CCCCCCCCC1=NCCN1CCO , what call appears in the results of this test?
Marked response: inactive

Exam item: For O=C(Nc1ccc2c(O)c(N=Nc3ccc(N=Nc4ccc(S(=O)(=O)O)cc4)cc3)c(S(=O)(=O)O)cc2c1)c1ccccc1 , what call appears in the results of this test?
Marked response: inactive

Exam item: For CCOC(=O)c1ccc(N)cc1 , what call appears in the results of this test?
Marked response: inactive

Exam item: For Cc1cc(=O)oc2cc(N(C)C)ccc12 , what call appears in the results of this test?
Marked response: inactive

Exam item: For O=CCc1ccccc1 , what call appears in the results of this test?
Marked response: inactive

---

experiment-summary: ATG_AP_2_CIS: Attagene CIS-FACTORIAL HepG2 Assay for human Activator Protein 2 (AP-2) (AID 2282932)
run-conditions: HepG2 AP-2 cis-reporter, Attagene transcription factor profiling; actives raise or lower the signal
Activity calls are given as the source filed them. Rule for the calls: active = hit-call score of the fitted dose curve at least 0.9, where 1 is the maximum; inactive = score below 0.9.
Choose the fitting class; nothing outside active, inactive is accepted.

Consider the worked cases shown below.
CCOC(=O)C(C#N)=C(c1ccccc1)c1ccccc1
inactive
CN(c1nccc(=O)[nH]1)C1CCN(c2nc3ccccc3n2Cc2ccc(F)cc2)CC1
inactive
C=CC(=C)CCCC(C)(C)OC(C)=O
inactive
C=C(CC(=O)O)C(=O)O
inactive
COc1ccc(N)c([N+](=O)[O-])c1
inactive

Exam item: For COc1ccc(CCC(C)=O)cc1 , what call appears in the results of this test?
Marked response: inactive

Exam item: For CCCCCCCCCCCCN1CCCCCC1=O , what call appears in the results of this test?
Marked response: inactive

Exam item: For COc1ccccc1N=Nc1c(S(=O)(=O)O)cc2cc(S(=O)(=O)O)cc(NC(C)=O)c2c1O , what call appears in the results of this test?
Marked response: inactive

Exam item: For C=C(C)C1CC=C(C)C(=O)C1 (centres undefined) , what call appears in the results of this test?
Marked response: inactive

Exam item: For O=C(Nc1ccc2c(O)c(N=Nc3ccc(N=Nc4ccc(S(=O)(=O)O)cc4)cc3)c(S(=O)(=O)O)cc2c1)c1ccccc1 , what call appears in the results of this test?
Marked response: inactive

---

Read-out: Monocyte Chemoattractant Protein-1 (MCP1), CCL2 (gene 6347)
experiment-summary: BSK_4H_MCP1: BioMAP Diversity Plus: 4H Assay for Monocyte Chemoattractant Protein-1 (MCP1) Biomarker Activity (AID 2283018)
run-conditions: primary human endothelial cells (HUVEC); actives raise or lower the signal
The source made the active and inactive calls. How the source made its calls: active means hit-call score of the fitted dose curve at least 0.9, where 1 is the maximum; inactive means score below 0.9.
Choose the fitting class; nothing outside active, inactive is accepted.

Exam item: For c1ccc(Oc2ccccc2)cc1 , what call appears in the results of this test?
Marked response: active

Exam item: For C=C(C)C(=O)OCC(CC)(COC(=O)C(=C)C)COC(=O)C(=C)C , what call appears in the results of this test?
Marked response: inactive

---

experiment-summary: BSK_3C_uPAR: BioMAP Diversity Plus: 3C Assay for Urokinase-type plasminogen activator receptor (uPAR) Biomarker Activity (AID 2282998)
run-conditions: BioMAP 3C HUVEC, uPAR biomarker ELISA; actives raise or lower the signal
Calls of active or inactive are those of the source. Rule for the calls: active = hit-call score of the fitted dose curve at least 0.9, where 1 is the maximum; inactive = score below 0.9.
Choose the fitting class; nothing outside active, inactive is accepted.

CCCCOC(=O)CCCCCCCC(=O)OCCCC
inactive
CCOC(=O)C(C#N)=C(c1ccccc1)c1ccccc1
inactive
CN(C)C(=O)Nc1ccc(Oc2ccc(Cl)cc2)cc1
active
c1ccc(Oc2ccccc2)cc1
active

Okay, next one:
Exam item: For CC(=O)Nc1ccc(C(=O)CCl)cc1 , what call appears in the results of this test?
Marked response: active

---

Read-out: Interleukin-8 (IL8), CXCL8 (gene 3576)
experiment-summary: BSK_MyoF_IL8: BioMAP Diversity Plus: MyoF Assay for Interleukin-8 (IL8) Biomarker Activity (AID 2284261)
run-conditions: primary human lung fibroblasts
The source made the active and inactive calls. The calls were made as follows: active = hit-call score of the fitted dose curve at least 0.9, where 1 is the maximum; inactive = score below 0.9.
Choose the fitting class; nothing outside active, inactive is accepted.

Consider the worked cases shown below.
CCCCOC(=O)CCCCCCCC(=O)OCCCC
inactive
COc1cc(Cl)c(OC)cc1N
inactive
CC=Cc1ccc(OCC)c(O)c1
inactive
CC(C=O)Cc1ccc(C(C)(C)C)cc1 (configuration not stated)
inactive
COc1ccc(OC)c(N=Nc2c(O)ccc3ccccc23)c1
active
C=C(C)[C@H]1CC=C(C)C(=O)C1
inactive

Okay, next one:
Exam item: For IC(I)I , what call appears in the results of this test?
Marked response: inactive

---

Read-out: Interleukin-8 (IL8), CXCL8 (gene 3576)
experiment-summary: BSK_MyoF_IL8: BioMAP Diversity Plus: MyoF Assay for Interleukin-8 (IL8) Biomarker Activity (AID 2284261)
run-conditions: primary human lung fibroblasts
Calls of active or inactive are those of the source. Rule for the calls: active = hit-call score of the fitted dose curve at least 0.9, where 1 is the maximum; inactive = score below 0.9.
readout-label: outcome

CC(C)(N=C=O)c1cccc(C(C)(C)N=C=O)c1
inactive
CSCCC=O
inactive
Cc1cc(CCC(=O)OCCOCCOCCOC(=O)CCc2cc(C)c(O)c(C(C)(C)C)c2)cc(C(C)(C)C)c1O
inactive

---

experiment-summary: ATG_Sox_CIS: Attagene CIS-FACTORIAL HepG2 Assay for human SRY-box transcription factor (SOX) (AID 2282960)
run-conditions: HepG2 Attagene cis-factorial SOX reporter, mRNA; actives raise or lower the signal
Activity calls are given as the source filed them. Rule for the calls: active = hit-call score of the fitted dose curve at least 0.9, where 1 is the maximum; inactive = score below 0.9.
readout-label: AC50

NC1CCCCC1N (stereo not drawn)
inactive
CCCCN(CCCC)C(=O)N(CCCC)CCCC
52.2 µM (active)
CC=Cc1ccc(OCC)c(O)c1
inactive

---

experiment-summary: ATG_NRF2_ARE_CIS: Attagene CIS-FACTORIAL HepG2 Assay for human Nuclear Factor Erythroid 2 Related Factor 2 (NFR2) response to Antioxidant Response Elements (ARE) (AID 2282992)
run-conditions: HepG2 Attagene ARE/NRF2 reporter, transcription factor activity; actives raise or lower the signal
The source made the active and inactive calls. Rule for the calls: active = hit-call score of the fitted dose curve at least 0.9, where 1 is the maximum; inactive = score below 0.9.
Choose the fitting class; nothing outside 1 (active), -1 (inactive) is accepted.

Consider the worked cases shown below.
COCCOCCOCCO
-1
CS(=O)(=O)OCCCCOS(C)(=O)=O
-1
CCCCCCCCC=CCCCCCCCC1=NCCN1CCO
-1
O=c1c(O)c(-c2ccc(O)cc2)oc2cc(O)cc(O)c12
1
O=C(Nc1ccc2c(c1)Cc1ccccc1-2)C(F)(F)F
1

Exam item: For CC(=O)CC(=O)Nc1ccc(C)cc1C , what call appears in the results of this test?
Marked response: -1

Exam item: For OC[C@H]1O[C@@H]2O[C@H]3[C@H](O)[C@@H](O)[C@@H](O[C@H]4[C@H](O)[C@@H](O)[C@@H](O[C@H]5[C@H](O)[C@@H](O)[C@@H](O[C@H]6[C@H](O)[C@@H](O)[C@@H](O[C@H]7[C@H](O)[C@@H](O)[C@@H](O[C@H]8[C@H](O)[C@@H](O)[C@@H](O[C@H]9[C@H](O)[C@@H](O)[C@@H](O[C@H]1[C@H](O)[C@H]2O)O[C@@H]9CO)O[C@@H]8CO)O[C@@H]7CO)O[C@@H]6CO)O[C@@H]5CO)O[C@@H]4CO)O[C@@H]3CO , what call appears in the results of this test?
Marked response: -1

Exam item: For Nc1ccc2c(O)cc(S(=O)(=O)O)cc2c1 , what call appears in the results of this test?
Marked response: -1

Exam item: For NCC1CCCC(CN)C1 (stereo unspecified) , what call appears in the results of this test?
Marked response: -1

Exam item: For O=C(c1ccccc1)C(O)c1ccccc1 (stereo unspecified) , what call appears in the results of this test?
Marked response: -1

Exam item: For Nc1ccc(Cl)c([N+](=O)[O-])c1 , what call appears in the results of this test?
Marked response: -1

Exam item: For CCCCCC(C)=O , what call appears in the results of this test?
Marked response: -1

Exam item: For CCC(Cl)C(Cl)C(Cl)CC(Cl)C(Cl)C(C)Cl (stereo unspecified) , what call appears in the results of this test?
Marked response: 1

Exam item: For CCc1ccc(O)c(OC)c1 , what call appears in the results of this test?
Marked response: -1

Exam item: For CCO/C=C1\N=C(c2ccccc2)OC1=O , what call appears in the results of this test?
Marked response: -1

Exam item: For CCOc1ccc(NC(=O)CC(C)O)cc1 (stereo unspecified) , what call appears in the results of this test?
Marked response: -1
